Each recorded value in this set is attributed to PubChem BioAssay AID1345085.

System: PA-1
Assay: Confirmatory qHTS for gynecologic anti-cancer compounds from libraries of approved drugs and bioactive compounds; note: nearly all actives have a fitted effect of over 55% in size
Conditions: gynecologic cancer cell panel viability, ATPlite luminescence, 48 h; series mostly up to 57.6 µM
Inconclusive results are not listed. Active and inactive are the calls of the source. Calls come from the whole dose curve; as a rule, active = well fitted cell-killing curve with a large enough effect; inconclusive = small, poorly fitted or top-dose-only effect, or effect the other way; inactive = no such curve, though single readings can be large or run the other way.
// one of active, inactive, no free text

Reference set (5 entries):
Please indicate how the test categorized Cn1c(=O)c(F)c(Nc2ccc(I)cc2F)c2c(=O)n(CC(O)CO)cnc21 (stereo not drawn) . active

Please indicate how the test categorized CCc1c2c(nc3ccc(O)cc13)-c1cc3c(c(=O)n1C2)COC(=O)[C@]3(O)CC . active

Please indicate how the test categorized OCCNC1CCCc2c1[nH]c1ccc(-c3ccccc3)cc21 (stereo not drawn) . active

Please indicate how the test categorized CC[C@@]1(O)C(=O)OCc2c1cc1n(c2=O)Cc2cc3cc(O)ccc3nc2-1 . active

Please indicate how the test categorized C=CC(=O)Nc1cccc(Oc2nc(Nc3ccc(N4CCN(C)CC4)cc3)ncc2Cl)c1 . active

---
Please indicate how the test categorized CC(C)[C@@H](CS(=O)(=O)C(C)C)N1C(=O)[C@@](C)(CC(=O)O)C[C@H](c2cccc(Cl)c2)[C@H]1c1ccc(Cl)cc1 . active

Please indicate how the test categorized COc1cc(C(=O)N2CCC(N3CCN(C)CC3)CC2)ccc1Nc1ncc2c(n1)N(C)c1ccccc1C(=O)N2C . active
